protocolNotes: Logarithm of inhibitory concentration against HIV-induced cytopathogenicity in MT-4 cell cultures
Type: functional, cell-based
studyConditions: Human immunodeficiency virus 1, MT4
pIC50: −log10 of the molar value.
In this section we review reported pIC50 values for a set of compounds.
reportedProperty: pIC50

- CCCc1cc(O)nc(SCC(C)(C)c2ccccc2)n1: 4.80
- CC(Nc1ncccc1C(N)=O)c1cccc(Cl)c1 (stereo not given): 4.90
- NC(=O)N/N=C\c1cc(Cl)ccc1Nc1cccc(Cl)c1: 5.60
- O=C(Nc1cccnc1)Nc1nc(Cl)ccc1Cl: 4.50

###

protocolNotes: Logarithm of inhibitory concentration against HIV-induced cytopathogenicity in MT-4 cell cultures
Assay type: functional, cell-based
studyConditions: Human immunodeficiency virus 1, MT4
Below, each entry is listed alongside its reported log10 of IC50.
reportedProperty: log10 of IC50 (log10 of the value in µM)

• CC(C)n1c(O)nnc1Sc1cccc(C(F)(F)F)c1 = 1.90
• COC(C/N=C(\S)Nc1c(Br)cc(Cl)cc1Br)OC = 1.40
• CSc1cccnc1C(=O)NCc1ccc(N)cc1 = 1.60
• COc1cccc(CC/N=C(\S)Nc2ccc(C#N)cc2)c1 = 0.20
• NC(=O)N/N=C\c1ccccc1NCc1ccccn1 = 0.80

###

// reported pIC50 per item
protocolNotes: Logarithm of inhibitory concentration against HIV-induced cytopathogenicity in MT-4 cell cultures
Assay type: functional, cell-based
studyConditions: Human immunodeficiency virus 1, MT4
pIC50: −log10 of the molar value.
reportedProperty: pIC50

• CC(C)(C)c1nc(COc2ccc(C(N)=O)c(O)c2)no1 = < 4.00
• O=C1NCCCC1C(=O)NNC(=S)Nc1cc(Cl)cc(Cl)c1 (configuration not stated) = < 4.30
• CC(NCCc1cccs1)c1cc(C#N)ccc1O (configuration not stated) = < 4.00
• N#Cc1ccc(O)c(NC(=O)Nc2cccc(F)c2)c1 = < 4.00
• O=C(N/N=C(\S)Nc1cc(Cl)cc(Cl)c1)c1ccccc1F = < 5.10
• O=C(Cc1ccc(I)cc1)Nc1ncccc1O = < 4.00
• Oc1cc(O)cc(CNc2cc(Cl)c(Cl)c(Cl)c2)c1 = < 4.30
